- METHOD: Clearance in Sprague-Dawley rat at 1 mg/kg, iv by LC/MS-MS analysis
- Type: ADME, organism-based
- Design: dose 1 mg/kg, route intravenous
- CONDITION PARAMETERS: Sprague-Dawley, in vivo
MEASUREMENT KIND: clearance (mL/min/kg)
State the answer as a number, implicitly in mL/min/kg.

query: Name the recorded clearance for CN(C)[C@@H]1C(O)=C(C(N)=O)C(=O)[C@@]2(O)C(O)=C3C(=O)c4c(O)c(NC(=O)CN5CCCC5)cc(F)c4C[C@H]3C[C@@H]12 .
result: 9.4

----------
- METHOD: Apparent volume of distribution in Sprague-Dawley rat at 1 mg/kg, iv by LC/MS-MS analysis
- CONDITION PARAMETERS: in vivo
MEASUREMENT KIND: Vd (L/kg)
Return type: number; implicit unit L/kg.

query: Which measured Vd value corresponds to CN(C)[C@@H]1C(O)=C(C(N)=O)C(=O)[C@@]2(O)C(O)=C3C(=O)c4c(O)c(NC(=O)CN5CCCC5)cc(F)c4C[C@H]3C[C@@H]12 [ERAVACYCLINE] ?
result: 3.2

----------
- Tested on: Klebsiella pneumoniae
- METHOD: Antibacterial activity against tetracycline-resistant Klebsiella pneumoniae 153
- Assay type: functional
# log10(MIC) listing for each entry below
Hi team, quick reminder: these entries are log10 of MIC (mg/L).

Some entries whose results are on file:
1) COCCNCC(=O)Nc1cc(F)c2c(c1O)C(=O)C1=C(O)[C@]3(O)C(=O)C(C(N)=O)=C(O)[C@@H](N(C)C)[C@@H]3C[C@@H]1C2 : 0.90
2) CN(C)[C@@H]1C(O)=C(C(N)=O)C(=O)[C@@]2(O)C(O)=C3C(=O)c4c(O)c(NC(=O)CN5CC[C@@H](F)C5)cc(F)c4C[C@H]3C[C@@H]12 : 0.90
3) COC[C@@H]1CCCN1CC(=O)Nc1cc(F)c2c(c1O)C(=O)C1=C(O)[C@]3(O)C(=O)C(C(N)=O)=C(O)[C@@H](N(C)C)[C@@H]3C[C@@H]1C2 : 1.20

query: // query log10(MIC) value for entry CN(C)CC(=O)Nc1cc(F)c2c(c1O)C(=O)C1=C(O)[C@]3(O)C(=O)C(C(N)=O)=C(O)[C@@H](N(C)C)[C@@H]3C[C@@H]1C2
result: 0.90

query: Given CN(C)[C@@H]1C(O)=C(C(N)=O)C(=O)[C@@]2(O)C(O)=C3C(=O)c4c(O)c(NC(=O)CNC(C)(C)C)cc(F)c4C[C@H]3C[C@@H]12 , state its recorded log10(MIC).
result: 0.30

query: I have this molecule here, CN(C)[C@@H]1C(O)=C(C(N)=O)C(=O)[C@@]2(O)C(O)=C3C(=O)c4c(O)c(NC(=O)CN5CCC5)cc(F)c4C[C@H]3C[C@@H]12 , and I need its recorded log10(MIC).
result: 0.60

query: // log10(MIC) lookup, key: CN(C)c1cc(NC(=O)CNC(C)(C)C)c(O)c2c1C[C@H]1C[C@H]3[C@H](N(C)C)C(O)=C(C(N)=O)C(=O)[C@@]3(O)C(O)=C1C2=O
result: 0.00

query: Recorded log10(MIC) of CCNCC(=O)Nc1cc(F)c2c(c1O)C(=O)C1=C(O)[C@]3(O)C(=O)C(C(N)=O)=C(O)[C@@H](N(C)C)[C@@H]3C[C@@H]1C2 , please.
result: 0.90

----------
- Test system: Staphylococcus aureus
- METHOD: Antibacterial activity against tetracycline- and methicillin-resistant Staphylococcus aureus 161
- Format: functional
Entries and their log10(MIC) values follow.
In plain terms, each number is the log10 of measured MIC in mg/L.

See these solved cases before continuing.
1) CN(C)c1cc(NC(=O)CNC(C)(C)C)c(O)c2c1C[C@H]1C[C@H]3[C@H](N(C)C)C(O)=C(C(N)=O)C(=O)[C@@]3(O)C(O)=C1C2=O : -0.90
2) CN(C)[C@@H]1C(O)=C(C(N)=O)C(=O)[C@@]2(O)C(O)=C3C(=O)c4c(O)c(NC(=O)CN5CC[C@@H](O)C5)cc(F)c4C[C@H]3C[C@@H]12 : 0.30

query: Requested read-out: log10(MIC). Entry: CN(C)[C@@H]1C(O)=C(C(N)=O)C(=O)[C@@]2(O)C(O)=C3C(=O)c4c(O)c(NC(=O)CN5CCOCC5)cc(F)c4C[C@H]3C[C@@H]12
result: 0.90

query: Given the compound CN(C)[C@@H]1C(O)=C(C(N)=O)C(=O)[C@@]2(O)C(O)=C3C(=O)c4c(O)c(NC(=O)CN5CCCCC5)cc(F)c4C[C@H]3C[C@@H]12 , what is its reported log10(MIC)?
result: 0.00

query: Any idea what its log10(MIC) is? The compound is CN(C)[C@@H]1C(O)=C(C(N)=O)C(=O)[C@@]2(O)C(O)=C3C(=O)c4c(O)c(NC(=O)CN5CC6CCCC6C5)cc(F)c4C[C@H]3C[C@@H]12 (stereo partly specified)
result: 0.00

query: Which log10(MIC) reading was recorded for the compound COCCNCC(=O)Nc1cc(F)c2c(c1O)C(=O)C1=C(O)[C@]3(O)C(=O)C(C(N)=O)=C(O)[C@@H](N(C)C)[C@@H]3C[C@@H]1C2 ?
result: -0.30

query: Data request, read-out log10(MIC), for CN(C)[C@@H]1C(O)=C(C(N)=O)C(=O)[C@@]2(O)C(O)=C3C(=O)c4c(O)c(NC(=O)CN5CC[C@@H](F)C5)cc(F)c4C[C@H]3C[C@@H]12
result: -0.30

----------
- Test system: Streptococcus pneumoniae
- METHOD: microbe, parasite or virus in culture
- Assay type: functional
- CONDITION PARAMETERS: ATCC 106 49619
- Description: Antibacterial activity against Streptococcus pneumoniae ATCC 106 49619
List of log10 of MIC values.
Heads up: the numbers are on a log10 scale; they represent MIC in µg/mL.

A selection of reference data follows.
1) CN(C)[C@@H]1C(O)=C(C(N)=O)C(=O)[C@@]2(O)C(O)=C3C(=O)c4c(O)c(NC(=O)CN5CC6CCCC6C5)cc(F)c4C[C@H]3C[C@@H]12 (some centres not stated) : -0.90
2) CN(C)[C@@H]1C(O)=C(C(N)=O)C(=O)[C@@]2(O)C(O)=C3C(=O)c4c(O)c(NC(=O)CNC(C)(C)C)cc(F)c4C[C@H]3C[C@@H]12 : -1.81
3) CN(C)[C@@H]1C(O)=C(C(N)=O)C(=O)[C@@]2(O)C(O)=C3C(=O)c4c(O)c(NC(=O)CN5CC[C@@H](O)C5)cc(F)c4C[C@H]3C[C@@H]12 : -0.60
4) CN(C)[C@@H]1C(O)=C(C(N)=O)C(=O)[C@@]2(O)C(O)=C3C(=O)c4c(O)c(NC(=O)CN5Cc6ccccc6C5)cc(F)c4C[C@H]3C[C@@H]12 : -0.90
5) CN(C)[C@@H]1C(O)=C(C(N)=O)C(=O)[C@@]2(O)C(O)=C3C(=O)c4c(O)c(NC(=O)CNCC(F)(F)F)cc(F)c4C[C@H]3C[C@@H]12 : -0.30
6) COC[C@@H]1CCCN1CC(=O)Nc1cc(F)c2c(c1O)C(=O)C1=C(O)[C@]3(O)C(=O)C(C(N)=O)=C(O)[C@@H](N(C)C)[C@@H]3C[C@@H]1C2 : -0.90
7) CN(C)[C@@H]1CCN(CC(=O)Nc2cc(F)c3c(c2O)C(=O)C2=C(O)[C@]4(O)C(=O)C(C(N)=O)=C(O)[C@@H](N(C)C)[C@@H]4C[C@@H]2C3)C1 : 0.30
8) CC(C)NCC(=O)Nc1cc(F)c2c(c1O)C(=O)C1=C(O)[C@]3(O)C(=O)C(C(N)=O)=C(O)[C@@H](N(C)C)[C@@H]3C[C@@H]1C2 : -1.81
9) CN(C)[C@@H]1C(O)=C(C(N)=O)C(=O)[C@@]2(O)C(O)=C3C(=O)c4c(O)cccc4[C@@](C)(O)[C@H]3C[C@@H]12 : -0.60
10) CN(C)[C@@H]1C(O)=C(C(N)=O)C(=O)[C@@]2(O)C(O)=C3C(=O)c4c(O)c(NC(=O)CN5CCCCC5)cc(F)c4C[C@H]3C[C@@H]12 : -1.81

query: Reported log10 of MIC, compound CN(C)CC(=O)Nc1cc(F)c2c(c1O)C(=O)C1=C(O)[C@]3(O)C(=O)C(C(N)=O)=C(O)[C@@H](N(C)C)[C@@H]3C[C@@H]1C2 : ____
result: -1.81

query: Would you kindly share the measured log10 of MIC for CN(C)[C@@H]1C(O)=C(C(N)=O)C(=O)[C@@]2(O)C(O)=C3C(=O)c4c(O)c(NC(=O)CN5CC[C@H](F)C5)cc(F)c4C[C@H]3C[C@@H]12 ?
result: -1.81
